Data credit: PubChem BioAssay (NCI)

test system: A549 NSCLC; experiment: NCI tumour cell line growth inhibition, 48 h
parameter: TGI

- molecule: "Nc1c(C(=O)c2cccc(C#CCN3CCOCC3)c2)cnn1-c1ccc(F)cc1"
  measured: "> 25 µM"
- molecule: "CCOC(=O)C(=Cc1cc(OC)ccc1OC)C(=O)OCC"
  measured: "26.9 µM"
- molecule: "Cc1cc(S(=O)(=O)n2ccnc2Oc2ccccc2)c(SSc2cc(Cl)c(C)cc2S(=O)(=O)n2ccnc2Oc2ccccc2)cc1Cl"
  measured: "> 100 µM"
- molecule: "Cc1cc2c(cc1C)C(=O)C1(C2)Cc2c(ccc(C)c2C)C1=O (stereo not drawn)"
  measured: "> 100 µM"
- molecule: "N#Cc1cccc(/C=C(/C(=O)c2ccccc2)c2ccccc2)c1"
  measured: "47.6 µM"
- molecule: "O=C1CSC(c2ccc(Cl)cc2)N1c1ccc(-c2ccc(-n3c(-c4ccccc4)nc4ccccc4c3=O)cc2)cc1 (stereo not drawn)"
  measured: "> 100 µM"
- molecule: "COc1ccc(CC2c3cc(OC)c(OC)c(OC)c3CC[N+]2(C)C)cc1Oc1ccc(CC2c3cc4c(c(OC)c3CCN2C)OCO4)cc1 (stereo not drawn)"
  measured: "> 100 µM"
- molecule: "COc1cc([C@@H]2c3cc4c(cc3[C@@H](NCc3ccccc3)C3COC(=O)[C@@H]32)OCO4)cc(OC)c1O (stereo partly drawn)"
  measured: "15.4 µM"
- molecule: "Cc1ncc(C(=O)Nc2ccc(CN3CCN(C)CC3)c(C(F)(F)F)c2)cc1C#Cc1cnc(N)c2ncccc12"
  measured: "2.69 µM"
- molecule: "O=Cc1ccc(Oc2c3ccccc3nc3occc23)cc1"
  measured: "50.5 µM"
- molecule: "CC1(C)N=C(N)N=C(N)N1c1cccc(CCCCc2ccccc2)c1"
  measured: "1.35 µM"
- molecule: "O=C(Nc1nnc(-c2c(Cl)c(Cl)c(Cl)c(Cl)c2-c2nc3cc(C(=O)c4ccccc4)ccc3[nH]2)o1)c1ccccc1"
  measured: "31.9 µM"
- molecule: "O=C1[C@@H]2C3SC(c4ccccc43)[C@@H]2C(=O)N1c1ccccc1"
  measured: "> 100 µM"

* * *

test system: MALME-3M melanoma; test: NCI tumour cell line growth inhibition, 48 h; in the data active = GI50 below about 0.43 µM; inactive = the rest
Where a SMILES comes first, the peptide text is derived from it. [ ]: non-standard residue; d: D form. NMeY = CN[C@@H](Cc1ccc(O)cc1)C(=O)O; dNMeF = CN[C@H](Cc1ccccc1)C(=O)O; Sar = CNCC(=O)O
Outcome codes: yes = active, no = inactive

- compound: "CNNC(=N\\S(=O)(=O)c1cc(C(=O)Nc2ccc(Cl)cc2)c(Cl)cc1SCc1ccccc1)/N=C/c1ccc([N+](=O)[O-])s1"
  assignedCategory: "no"
- compound: "Cc1ncc(C(=O)Nc2ccc(CN3CCN(C)CC3)c(C(F)(F)F)c2)cc1C#Cc1cnc(N)c2ncccc12"
  assignedCategory: "yes"
- compound: "O=C(NNc1ccccc1)OCc1ccccc1"
  assignedCategory: "no"
- compound: "ICCC(c1ccccc1)(c1ccccc1)c1ccccc1"
  assignedCategory: "no"
- compound: "N#CSCc1c(Cl)cccc1Cl"
  assignedCategory: "no"
- compound: "C[C@H]1[C@H](C)CC[C@]2(C(=O)O)CC[C@]3(C)C(=CC[C@@H]4[C@@]5(C)CC[C@H](OC(=O)/C=C/c6ccc(O)cc6)C(C)(C)[C@@H]5CC[C@]43C)[C@H]12"
  assignedCategory: "no"
- compound: "C/C(=N\\NC(=O)c1ccccc1O)c1cccc(/C(C)=N/NC(=O)c2ccccc2O)n1"
  assignedCategory: "no"
- compound: "CCC[CH2][Ge]([CH2]CCC)([CH2]CCC)[O]C(=O)C(O)c1ccccc1 (stereo unspecified)"
  assignedCategory: "no"
- compound: "CC[C@H](C)[C@@H]1NC(=O)[C@H](Cc2ccc(O)cc2)N(C)C(=O)[C@H](Cc2ccccc2)NC(=O)CN(C)C(=O)[C@@H]2CCCN2C(=O)[C@@H](Cc2ccccc2)N(C)C(=O)[C@H](CC(C)C)NC1=O (cyclo(F[NMeY]IL[dNMeF]P[Sar]))"
  assignedCategory: "yes"
- compound: "O=C(NC(=S)NNC(=S)NNc1ccccc1)c1ccccc1"
  assignedCategory: "no"
- compound: "CCOC(=O)Cn1c(C)c(/C=N/NC(=O)c2cc3c(ccc4ccccc43)o2)c2ccccc21"
  assignedCategory: "no"
